What follows is a collection of AC50 values obtained with UniProtKB P0DMS8.
Sequence (P0DMS8 whole entry): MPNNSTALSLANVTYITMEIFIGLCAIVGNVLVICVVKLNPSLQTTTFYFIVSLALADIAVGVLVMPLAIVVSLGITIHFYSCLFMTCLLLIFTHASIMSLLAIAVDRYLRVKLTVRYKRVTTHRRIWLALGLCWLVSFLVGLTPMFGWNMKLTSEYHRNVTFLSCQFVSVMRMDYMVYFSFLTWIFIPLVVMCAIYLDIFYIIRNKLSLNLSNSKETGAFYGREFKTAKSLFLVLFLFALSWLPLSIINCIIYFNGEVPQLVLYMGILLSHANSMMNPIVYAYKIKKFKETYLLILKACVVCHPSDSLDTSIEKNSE

Worked cases, answers included:
compound	assay system	AC50
Clc1ccc2c(c1)C(c1ccccc1)=NCc1nncn1-2	UniProtKB P0DMS8	> 30 µM
CN(C)c1cc(NC(=O)CNC(C)(C)C)c(O)c2c1C[C@H]1C[C@H]3[C@H](N(C)C)C(O)=C(C(N)=O)C(=O)[C@@]3(O)C(O)=C1C2=O	UniProtKB P0DMS8	26.9 µM
CC(=O)OCC(=O)[C@@]1(O)CC[C@H]2[C@@H]3CCC4=CC(=O)CC[C@]4(C)C3=CC[C@@]21C [ANECORTAVE ACETATE]	UniProtKB P0DMS8	> 10 µM

Then this compound:
Value (AC50, UniProtKB P0DMS8) for record C[C@@H]1C[C@H]2[C@@H]3C[C@H](F)C4=CC(=O)C=C[C@]4(C)[C@@]3(F)[C@@H](O)C[C@]2(C)[C@H]1C(=O)CO = > 30 µM

* * *

- assay system: Alpha-1A adrenergic receptor (Homo sapiens, UniProt P35348); note: assay procedure not described here
- Sequence (P35348 whole entry): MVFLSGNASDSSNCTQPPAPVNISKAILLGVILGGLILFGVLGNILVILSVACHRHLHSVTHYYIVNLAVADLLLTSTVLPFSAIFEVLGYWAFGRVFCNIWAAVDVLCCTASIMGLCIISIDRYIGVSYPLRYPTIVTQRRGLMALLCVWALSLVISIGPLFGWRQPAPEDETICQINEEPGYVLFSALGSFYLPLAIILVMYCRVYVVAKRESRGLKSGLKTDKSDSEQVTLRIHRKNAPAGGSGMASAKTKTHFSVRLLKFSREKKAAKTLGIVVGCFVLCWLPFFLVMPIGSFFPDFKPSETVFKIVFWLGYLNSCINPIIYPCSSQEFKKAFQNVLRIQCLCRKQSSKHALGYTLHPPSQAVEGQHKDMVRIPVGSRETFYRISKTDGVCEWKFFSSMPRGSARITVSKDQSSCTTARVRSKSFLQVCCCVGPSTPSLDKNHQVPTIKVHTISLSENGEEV
- Assay type: functional, cell-based
metric name: AC50

Previously resolved entries follow.
compound	metric name	experimental value
COc1cc([C@@H]2c3cc4c(cc3[C@@H](O[C@@H]3O[C@@H]5CO[C@@H](c6cccs6)O[C@H]5[C@H](O)[C@H]3O)[C@H]3COC(=O)[C@H]23)OCO4)cc(OC)c1O [TENIPOSIDE]	AC50	> 30 µM
Cc1cc(CCN2CCN(c3cccc(Cl)c3)CC2)n[nH]1 [MEPIPRAZOLE]	AC50	0.43 µM

In plain terms, C[C@H](N)C(=O)O has a documented AC50 of > 30 µM

Lab note: measured AC50 of O=C(Oc1ccccc1C(=O)O)c1ccccc1O [SALSALATE] was > 30 µM

# AC50 (compound: N[C@@H](Cc1c[nH]c2ccc(O)cc12)C(=O)O ) is > 30 µM

The compound COCCCOc1ccnc(C[S+]([O-])c2nc3ccccc3[nH]2)c1C (centres undefined) showed AC50 equal to > 30 µM

Entry under test: C[C@]12CCC(=O)C=C1CC[C@@H]1[C@@H]2[C@@H](O)C[C@@]2(C)[C@H]1CC[C@]2(O)C(=O)COC(=O)CCC(=O)O [HYDROCORTISONE HEMISUCCINATE ANHYDROUS] . Its AC50 was > 30 µM

Reported AC50 for CCCCCCCCNC(C)C(O)c1ccc(SC(C)C)cc1 (centres undefined) was 11 µM

CN(CC(=O)O)C(=N)N yielded AC50 of > 30 µM

* * *

- assay system: 5-hydroxytryptamine receptor 2A (Homo sapiens, UniProt P28223); note: assay procedure not described here
- Sequence (P28223 whole entry): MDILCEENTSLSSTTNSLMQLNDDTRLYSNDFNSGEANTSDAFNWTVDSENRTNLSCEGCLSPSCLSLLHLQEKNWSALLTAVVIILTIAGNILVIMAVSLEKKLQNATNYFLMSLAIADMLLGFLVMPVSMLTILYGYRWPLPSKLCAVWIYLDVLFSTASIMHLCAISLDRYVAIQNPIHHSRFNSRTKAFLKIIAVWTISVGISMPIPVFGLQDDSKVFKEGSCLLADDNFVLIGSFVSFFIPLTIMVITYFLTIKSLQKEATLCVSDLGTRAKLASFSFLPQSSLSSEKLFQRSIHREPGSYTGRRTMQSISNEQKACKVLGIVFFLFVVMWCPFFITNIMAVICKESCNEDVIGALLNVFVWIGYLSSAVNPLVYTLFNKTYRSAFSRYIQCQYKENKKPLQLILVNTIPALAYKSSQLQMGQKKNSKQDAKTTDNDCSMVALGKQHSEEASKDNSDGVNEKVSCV
- Assay type: functional, cell-based
Collected AC50 values appear next to each entry.

structure as smiles	metric name	experimental value
CN(C)c1cc(CNCC(C)(C)C)c(O)c2c1C[C@H]1C[C@H]3[C@H](N(C)C)C(O)=C(C(N)=O)C(=O)[C@@]3(O)C(O)=C1C2=O	AC50	> 30 µM
CCCC[C@H](C)C[C@H](O)/C=C/[C@H]1[C@H](O)CC(=O)[C@@H]1CCCC/C=C/C(=O)O	AC50	> 30 µM
CCC(=O)O[C@@H](O[P@](=O)(CCCCc1ccccc1)CC(=O)N1C[C@H](C2CCCCC2)C[C@H]1C(=O)O)C(C)C	AC50	> 30 µM
C[C@H]1Oc2cc(cnc2N)-c2c(nn(C)c2C#N)CN(C)C(=O)c2ccc(F)cc21	AC50	> 30 µM
[H]/N=C(\N/C(=N/[H])NCCCCCCNC(=N)NC(=N)Nc1ccc(Cl)cc1)Nc1ccc(Cl)cc1	AC50	1.83 µM
CCOC(=O)Nc1ccc2c(c1)N(C(=O)CCN1CCOCC1)c1ccccc1S2	AC50	> 30 µM

Attention now turns to another entry.
// sample CCCOC(C(=O)OC1CCN(C)CC1)(c1ccccc1)c1ccccc1 , its AC50 was 26 µM

* * *

- assay system: Prostaglandin G/H synthase 1 (Rattus norvegicus, UniProt Q63921); note: assay procedure not described here
- Sequence (Q63921 whole entry): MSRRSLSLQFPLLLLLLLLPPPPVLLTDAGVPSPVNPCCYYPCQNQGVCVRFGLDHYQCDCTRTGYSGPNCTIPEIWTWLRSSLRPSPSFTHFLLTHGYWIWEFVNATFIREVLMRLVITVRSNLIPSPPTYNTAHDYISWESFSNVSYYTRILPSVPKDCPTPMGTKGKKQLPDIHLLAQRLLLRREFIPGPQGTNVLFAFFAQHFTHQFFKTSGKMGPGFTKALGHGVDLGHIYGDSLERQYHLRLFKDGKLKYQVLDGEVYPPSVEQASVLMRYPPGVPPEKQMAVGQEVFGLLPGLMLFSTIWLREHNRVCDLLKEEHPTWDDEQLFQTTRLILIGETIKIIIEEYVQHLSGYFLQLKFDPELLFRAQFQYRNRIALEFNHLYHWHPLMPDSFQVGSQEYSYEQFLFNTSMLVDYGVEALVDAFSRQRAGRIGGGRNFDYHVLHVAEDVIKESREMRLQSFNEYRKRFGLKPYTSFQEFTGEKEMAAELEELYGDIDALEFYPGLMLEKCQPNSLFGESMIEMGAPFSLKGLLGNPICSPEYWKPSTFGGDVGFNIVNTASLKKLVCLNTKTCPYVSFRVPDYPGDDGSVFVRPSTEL
- Format: functional
metric name: AC50 (µM)
Write the value in µM as a bare number.

molecule	metric name	measure unit	experimental value
CCCCCCOC(=O)CCC(=O)CN [HEXAMINOLEVULINATE]	AC50	µM	9.4

Moving on to another molecule below.
The value of AC50 measured for the molecule Cc1ccc2c(-c3ccccc3)nc(=O)n(C(C)C)c2c1 [PROQUAZONE] turned out to be 0.2

* * *

- assay system: 3',5'-cyclic-AMP phosphodiesterase 4A (Homo sapiens, UniProt P27815); note: assay procedure not described here
- Sequence (P27815 whole entry): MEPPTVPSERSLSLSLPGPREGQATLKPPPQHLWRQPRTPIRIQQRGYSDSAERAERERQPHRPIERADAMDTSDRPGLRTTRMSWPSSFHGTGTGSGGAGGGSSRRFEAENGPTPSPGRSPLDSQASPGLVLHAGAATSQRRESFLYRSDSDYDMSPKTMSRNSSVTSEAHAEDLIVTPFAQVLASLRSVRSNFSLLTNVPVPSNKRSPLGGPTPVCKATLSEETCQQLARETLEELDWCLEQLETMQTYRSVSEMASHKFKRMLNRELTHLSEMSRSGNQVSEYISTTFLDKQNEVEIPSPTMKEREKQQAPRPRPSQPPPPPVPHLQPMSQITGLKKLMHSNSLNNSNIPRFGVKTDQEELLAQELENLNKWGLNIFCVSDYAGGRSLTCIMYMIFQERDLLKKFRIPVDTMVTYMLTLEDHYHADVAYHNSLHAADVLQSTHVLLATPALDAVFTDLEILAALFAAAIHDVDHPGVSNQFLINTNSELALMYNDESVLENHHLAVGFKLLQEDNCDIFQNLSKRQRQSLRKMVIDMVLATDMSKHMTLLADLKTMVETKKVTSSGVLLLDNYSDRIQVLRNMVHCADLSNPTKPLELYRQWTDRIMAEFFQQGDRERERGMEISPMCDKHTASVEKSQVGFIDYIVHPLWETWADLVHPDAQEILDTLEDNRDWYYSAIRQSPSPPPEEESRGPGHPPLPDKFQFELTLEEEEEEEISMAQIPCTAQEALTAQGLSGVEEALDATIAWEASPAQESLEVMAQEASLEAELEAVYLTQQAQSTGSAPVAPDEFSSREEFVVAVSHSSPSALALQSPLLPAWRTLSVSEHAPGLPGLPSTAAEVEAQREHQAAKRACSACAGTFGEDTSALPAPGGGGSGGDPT
- Format: functional
Recorded AC50 for the following compounds

compound	experimental value
O=S(=O)(O)CCS	9 µM
C=CC[C@]1(O)CC[C@H]2[C@@H]3CCC4=CCCC[C@@H]4[C@H]3CC[C@@]21C	> 30 µM

Form field, AC50 with 3',5'-cyclic-AMP phosphodiesterase 4A (Homo sapiens, UniProt P27815), item C[C@H](N)C(=O)O : > 30 µM

Nc1ncnc(Nc2ccc(Cl)cc2)n1 on 3',5'-cyclic-AMP phosphodiesterase 4A (Homo sapiens, UniProt P27815) gives AC50 = 19.7 µM

Value (AC50, 3',5'-cyclic-AMP phosphodiesterase 4A (Homo sapiens, UniProt P27815)) for record c1ccc2[nH]c(-c3cscn3)nc2c1 = > 30 µM

Observed AC50, 3',5'-cyclic-AMP phosphodiesterase 4A (Homo sapiens, UniProt P27815), CCC[C@@H]1C[C@@H](C(=O)N[C@@H]([C@H]2O[C@H](SC)[C@H](OP(=O)(O)O)[C@@H](O)[C@H]2O)[C@H](C)Cl)N(C)C1 [CLINDAMYCIN PHOSPHATE] : > 30 µM

Tested system 3',5'-cyclic-AMP phosphodiesterase 4A (Homo sapiens, UniProt P27815); AC50 recorded for C[C@]1(COc2ccc(N3CCC(Oc4ccc(OC(F)(F)F)cc4)CC3)cc2)Cn2cc([N+](=O)[O-])nc2O1 was > 30 µM

Record for CC1(C)O[C@@H]2C[C@H]3[C@@H]4CCC5=CC(=O)CC[C@]5(C)[C@@]4(F)[C@@H](O)C[C@]3(C)[C@]2(C(=O)CCl)O1 [HALCINONIDE] under target or system 3',5'-cyclic-AMP phosphodiesterase 4A (Homo sapiens, UniProt P27815): AC50 reported as > 30 µM

Result for CC(C)(N)C(=O)N[C@H](Cc1c[nH]c2ccccc12)C(=O)N[C@H](Cc1c[nH]c2ccccc12)NC=O , tested on 3',5'-cyclic-AMP phosphodiesterase 4A (Homo sapiens, UniProt P27815), AC50: > 30 µM

The value of AC50 recorded for O=[N+]([O-])O[C@H]1CO[C@H]2[C@@H]1OC[C@H]2O[N+](=O)[O-] [ISOSORBIDE DINITRATE] when tested on 3',5'-cyclic-AMP phosphodiesterase 4A (Homo sapiens, UniProt P27815) reads > 30 µM

The recorded AC50 with 3',5'-cyclic-AMP phosphodiesterase 4A (Homo sapiens, UniProt P27815) for CCOC(=O)[C@H](CCc1ccccc1)N[C@H]1CS[C@H](c2cccs2)CN(CC(=O)O)C1=O was > 10 µM

For CCC(=O)O[C@@H](O[P@](=O)(CCCCc1ccccc1)CC(=O)N1C[C@H](C2CCCCC2)C[C@H]1C(=O)O)C(C)C on 3',5'-cyclic-AMP phosphodiesterase 4A (Homo sapiens, UniProt P27815), measured AC50 was > 30 µM

Summary line: CC(C1=C(CCN(C)C)Cc2ccccc21)c1ccccn1 (stereo not given) , 3',5'-cyclic-AMP phosphodiesterase 4A (Homo sapiens, UniProt P27815), reported AC50 = > 30 µM

Item O=C(O)c1cc(=O)c2ccccc2o1 ; assay system 3',5'-cyclic-AMP phosphodiesterase 4A (Homo sapiens, UniProt P27815); AC50 reported as > 30 µM

// compound O=P(O)(O)C(Cl)(Cl)P(=O)(O)O , assay 3',5'-cyclic-AMP phosphodiesterase 4A (Homo sapiens, UniProt P27815), AC50 value: > 30 µM

* * *

- assay system: Cannabinoid receptor 1 (Homo sapiens); note: assay procedure not described here
- Sequence (P21554 whole entry): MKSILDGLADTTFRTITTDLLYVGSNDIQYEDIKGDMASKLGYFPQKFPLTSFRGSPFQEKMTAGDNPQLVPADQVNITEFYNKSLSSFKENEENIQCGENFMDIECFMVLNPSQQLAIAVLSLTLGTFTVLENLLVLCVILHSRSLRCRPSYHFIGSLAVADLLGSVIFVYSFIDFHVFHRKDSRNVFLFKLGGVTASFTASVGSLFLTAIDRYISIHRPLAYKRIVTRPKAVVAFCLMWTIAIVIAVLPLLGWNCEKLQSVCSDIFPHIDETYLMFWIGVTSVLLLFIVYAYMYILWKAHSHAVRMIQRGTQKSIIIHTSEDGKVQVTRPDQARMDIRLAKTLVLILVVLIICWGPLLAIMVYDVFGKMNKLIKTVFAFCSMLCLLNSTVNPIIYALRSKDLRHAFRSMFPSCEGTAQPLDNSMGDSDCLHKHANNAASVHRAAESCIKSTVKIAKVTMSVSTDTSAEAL
- Format: functional, cell-based
// reported AC50 for each item listed

The examples below pair each entry with its known result.
compound	AC50
CCN(CC)C(=O)C1CN2CCc3cc(OC)c(OC)cc3C2CC1OC(C)=O (centres undefined) [BENZQUINAMIDE]	> 30 µM
Nc1nc(O)c2ncn(COC(CO)CO)c2n1	> 30 µM
CNCC[C@@H](Oc1ccccc1C)c1ccccc1	> 30 µM

The compound identified as CC[C@H]1OC(=O)[C@H](C)[C@@H](O[C@H]2C[C@@](C)(OC)[C@@H](O)[C@H](C)O2)[C@H](C)[C@@H](O[C@@H]2O[C@H](C)C[C@H](N(C)C)[C@H]2O)[C@](C)(O)C[C@@H](C)/C(=N\OCOCCOC)[C@H](C)[C@@H](O)[C@]1(C)O registered its AC50 at > 30 µM
